target: UniProt Q9Y5N1; assay: H3 Receptor Binding (Human) Method 2, [125I]-iodoproxyfan competitive radioligand binding; parameters: expressed in transfected cells; details: read-out: Human H3 Ki
Sequence (Q9Y5N1 whole entry): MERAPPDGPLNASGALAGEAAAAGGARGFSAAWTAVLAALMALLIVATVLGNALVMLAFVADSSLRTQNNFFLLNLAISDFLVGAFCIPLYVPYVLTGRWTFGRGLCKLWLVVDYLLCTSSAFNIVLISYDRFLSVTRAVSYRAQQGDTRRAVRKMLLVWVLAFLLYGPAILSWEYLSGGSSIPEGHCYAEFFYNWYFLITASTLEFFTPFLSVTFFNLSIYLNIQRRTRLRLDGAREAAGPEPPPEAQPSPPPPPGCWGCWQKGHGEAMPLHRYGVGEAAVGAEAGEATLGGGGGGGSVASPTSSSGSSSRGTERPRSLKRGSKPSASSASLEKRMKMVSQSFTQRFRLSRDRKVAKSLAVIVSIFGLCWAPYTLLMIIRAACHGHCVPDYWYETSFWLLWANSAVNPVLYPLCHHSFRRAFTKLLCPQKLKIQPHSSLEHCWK
Catalogue of Ki readings, one per entry.
Give just the numeric value; nM need not be written.

Worked cases, Ki given:
>>> recorded_result("O=C([C@H]1C[C@H](Oc2ccc(F)cc2)CN1CC1CC1)N1CCCN(C2CCC2)CC1 [Example 113]")
7
>>> recorded_result("CC(C)(C)OC(=O)N1C[C@@H](Oc2ccsc2)C[C@@H]1C(=O)N1CCCN(C2CCC2)CC1 [Example 54]")
11
>>> recorded_result("CC(C)(C)OC(=O)N1C[C@@H](Oc2ccc(C(F)(F)F)cc2)C[C@@H]1C(=O)N1CCCN(C2CCC2)CC1 [Example 28]")
7
>>> recorded_result("CC(C)(C)OC(=O)N1C[C@@H](OCc2cccc(F)c2)C[C@@H]1C(=O)N1CCCN(C2CCC2)CC1 [Example 147]")
8

Enter measured Ki, system UniProt Q9Y5N1, for the compound shown: Cc1ccc(O[C@H]2C[C@H](C(=O)N3CCCN(C4CCC4)CC3)N(C(=O)OC(C)(C)C)C2)cc1 [Example 29]
8

Report measured Ki on UniProt Q9Y5N1; entry: N#Cc1ccc(O[C@@H]2CN[C@@H](C(=O)N3CCCN(C4CC4)CC3)C2)cc1 [Example 79]
12

Hello, the source for this data is patent US8236792B2, in case you need it.
